Ref: ChEMBL document CHEMBL3352173

What MIC was measured for each of the following?
- System: Staphylococcus aureus
- TEST PROTOCOL: Antimicrobial activity against methicillin, quinolone-resistant Staphylococcus aureus by broth microdilution/CLSI method
- Format: functional
- EXPERIMENTAL SETUP: Staphylococcus aureus; read-out: MIC
Please state the figure in µg/mL; there is no need to write the unit.

// query Item CO[C@H]1CN(c2nc(C(=O)NCCN3CCOCC3)c(C(=O)O)s2)CC[C@H]1NC(=O)c1[nH]c(C)c(Cl)c1Cl has what recorded MIC?
// result 0.5

// query Endpoint output: MIC of CO[C@H]1CN(c2nc(-c3ccn[nH]3)c(C(=O)O)s2)CC[C@H]1NC(=O)c1[nH]c(C)c(Cl)c1Cl . Value?
// result 0.17

// query Need MIC of C=C1COC2(CN(c3ncc(C(=O)O)s3)CC[C@H]2NC(=O)c2[nH]c(C)c(Cl)c2Cl)OC1 , thanks.
// result 2

// query Which MIC value belongs to CO[C@H]1CN(c2nc(C(=O)NC[C@H](C)OC)c(C(=O)O)s2)CC[C@H]1NC(=O)c1[nH]c(C)c(Cl)c1Cl ?
// result 0.031
